growth inhibition for assorted compounds
- Method description: NCI Yeast Anticancer Drug Screen. Data for the sgs1 mgt1 strain (AID 161);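 further: 0% = growth of cultures given vehicle only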
- Test context: S. cerevisiae sgs1 mgt1 strain, at 50.0 µM, hits give high values
- Method: Growth inhibition of yeast strains with defined genetic alterations is measured as a screen for potential anti-cancer activity. Selected strains with alterations in DNA damage repair or cell cycle control were exposed to compounds and growth inhibition was measured relative to vehicle treated controls. The strain used in this assay is sgs1 mgt1
Compounds without any hit were thinned out: in the full panel of roughly 79,000, 15% have a hit.
Parameter: growth inhibition (%)

INSERT INTO measurements (compound, parameter, recorded_measurement) VALUES
  ('CC/C(=C\c1ccc(Cl)cc1)c1ccncc1', 'growth inhibition', 99.1),
  ('COc1cc2c(C)cc(=O)oc2c(OCC(O)CN2CCCC2)c1OC (stereo not drawn)', 'growth inhibition', -5.75),
  ('C1COC(C2=NCCO2)=N1', 'growth inhibition', -14.1),
  ('Clc1ccc(CSc2ccc3nncc(SCc4ccc(Cl)cc4Cl)c3c2)c(Cl)c1', 'growth inhibition', 15.1),
  ('COc1cccc(N(CCO)C2CCCCC2)c1', 'growth inhibition', 18.2),
  ('CCC(C)CCOC(=O)c1ccc(N=Cc2ccc(C=Nc3ccc(C(=O)OCCC(C)CC)cc3)cc2)cc1 (stereo not drawn)', 'growth inhibition', 30),
  ('CC1(O)C(O)C(O)C1(O)CO (stereo not drawn) (tested in a mixture with another compound)', 'growth inhibition', 9.9),
  ('CC(SCCNC(N)=O)C(N)=O (stereo not drawn)', 'growth inhibition', -6.6);
